For each of the compounds below, state its CC50.
# assay-notes: NOVARTIS: Cytotoxicity against human hepatocellular carcinoma cell line (Huh7)
# Assay type: toxicity, cell-based, Huh-7
# run-conditions: Huh7 cells (hepatocellular carcinoma cell line)
Numbers only, in µM.

Sample records with CC50:
{"columns": ["compound", "value-units", "CC50"],
 "data": [
  ["C=CC1CN2CCC1CC2C(OC(=O)c1ccco1)c1ccnc2ccccc12 (stereo not given)", "µM", 41.8],
  ["CCN(CC)c1ccc(C2N(Cc3ccccc3)CCN2Cc2ccccc2)c(O)c1", "µM", 23.6],
  ["COc1cc2c(cc1O)CC[n+]1cc3c(OC)c(OC)ccc3cc1-2 [JATRORRHIZINE CHLORIDE]", "µM", 8.94]
]}

# input compound: "CCOc1ccc2nc(C)cc(Nc3ccc(OC)cc3)c2c1" ; wanted: its CC50
8.35
